test system: PPARg:RXRa 30nM:10nM, anti-RXR (NR concentration 30 nM, RXRa partner concentration 10 nM); assay: PBM binding z-score (relative to random genomic background probes); higher = stronger binding; sequences stand for … in GC…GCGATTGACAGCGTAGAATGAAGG
readout kind: PBM binding z-score
Provide a numeric answer; units are not to be included.

{"sequence record": "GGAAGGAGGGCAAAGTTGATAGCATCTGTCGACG", "assayed target": "PPARg:RXRa 30nM:10nM, anti-RXR (NR concentration 30 nM, RXRa partner concentration 10 nM)", "reported measurement": 7.65}
{"sequence record": "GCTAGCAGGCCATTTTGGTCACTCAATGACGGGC", "assayed target": "PPARg:RXRa 30nM:10nM, anti-RXR (NR concentration 30 nM, RXRa partner concentration 10 nM)", "reported measurement": -0.857}
{"sequence record": "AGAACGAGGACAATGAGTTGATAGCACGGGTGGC", "assayed target": "PPARg:RXRa 30nM:10nM, anti-RXR (NR concentration 30 nM, RXRa partner concentration 10 nM)", "reported measurement": -0.0875}
{"sequence record": "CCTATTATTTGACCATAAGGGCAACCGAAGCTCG", "assayed target": "PPARg:RXRa 30nM:10nM, anti-RXR (NR concentration 30 nM, RXRa partner concentration 10 nM)", "reported measurement": 0.155}
{"sequence record": "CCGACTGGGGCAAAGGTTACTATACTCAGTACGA", "assayed target": "PPARg:RXRa 30nM:10nM, anti-RXR (NR concentration 30 nM, RXRa partner concentration 10 nM)", "reported measurement": 8.85}
{"sequence record": "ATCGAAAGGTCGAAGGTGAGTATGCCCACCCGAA", "assayed target": "PPARg:RXRa 30nM:10nM, anti-RXR (NR concentration 30 nM, RXRa partner concentration 10 nM)", "reported measurement": 2.9}

Okay, next one:
Query: Quick one: PBM binding z-score for `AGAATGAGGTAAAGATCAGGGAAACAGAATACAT` ?
Result: 0.928

Where do these numbers come from? They come from the supplement of paper PMC6555819.
